# EXPERIMENTAL_TARGET: GABA-A receptor; alpha-5/beta-3/gamma-2 (Homo sapiens, UniProt P18507+P28472+P31644)
# Sequence (P18507 whole entry): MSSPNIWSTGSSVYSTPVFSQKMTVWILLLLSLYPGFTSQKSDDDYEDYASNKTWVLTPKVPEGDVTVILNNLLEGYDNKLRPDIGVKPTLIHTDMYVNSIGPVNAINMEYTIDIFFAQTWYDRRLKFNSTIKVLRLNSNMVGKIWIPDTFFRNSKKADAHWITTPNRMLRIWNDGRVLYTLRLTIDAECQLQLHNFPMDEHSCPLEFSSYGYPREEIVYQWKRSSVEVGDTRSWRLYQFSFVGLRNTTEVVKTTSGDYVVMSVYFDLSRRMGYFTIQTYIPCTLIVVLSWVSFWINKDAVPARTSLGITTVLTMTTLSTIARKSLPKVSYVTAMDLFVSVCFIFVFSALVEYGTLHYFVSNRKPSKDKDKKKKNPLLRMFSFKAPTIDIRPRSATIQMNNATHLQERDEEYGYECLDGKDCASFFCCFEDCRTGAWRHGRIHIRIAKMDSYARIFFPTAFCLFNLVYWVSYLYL
# Sequence (P28472 whole entry): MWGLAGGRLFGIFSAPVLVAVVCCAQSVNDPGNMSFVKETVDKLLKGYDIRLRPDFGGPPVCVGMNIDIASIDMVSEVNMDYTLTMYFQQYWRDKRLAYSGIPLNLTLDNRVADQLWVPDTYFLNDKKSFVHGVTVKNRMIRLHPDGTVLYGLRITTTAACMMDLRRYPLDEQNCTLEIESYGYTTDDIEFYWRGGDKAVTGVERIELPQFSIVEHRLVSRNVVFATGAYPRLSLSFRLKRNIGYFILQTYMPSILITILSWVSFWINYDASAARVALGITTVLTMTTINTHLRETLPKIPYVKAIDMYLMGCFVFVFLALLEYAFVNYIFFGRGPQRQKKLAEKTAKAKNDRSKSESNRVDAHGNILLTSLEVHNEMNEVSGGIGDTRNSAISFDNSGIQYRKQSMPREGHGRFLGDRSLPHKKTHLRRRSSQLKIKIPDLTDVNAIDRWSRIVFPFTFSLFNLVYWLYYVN
# Sequence (P31644 whole entry): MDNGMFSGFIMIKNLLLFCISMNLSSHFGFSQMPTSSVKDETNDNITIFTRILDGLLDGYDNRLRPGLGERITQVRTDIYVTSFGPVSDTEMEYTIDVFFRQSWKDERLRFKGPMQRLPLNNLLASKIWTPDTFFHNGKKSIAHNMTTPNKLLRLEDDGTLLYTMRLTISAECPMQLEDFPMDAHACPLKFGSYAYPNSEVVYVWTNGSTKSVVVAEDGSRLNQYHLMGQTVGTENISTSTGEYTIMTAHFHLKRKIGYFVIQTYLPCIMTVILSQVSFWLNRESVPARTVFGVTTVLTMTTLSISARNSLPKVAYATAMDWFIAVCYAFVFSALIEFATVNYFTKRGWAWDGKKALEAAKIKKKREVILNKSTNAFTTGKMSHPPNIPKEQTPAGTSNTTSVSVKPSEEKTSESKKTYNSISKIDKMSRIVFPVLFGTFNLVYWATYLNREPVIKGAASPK
# ASSAY_OVERVIEW: Displacement of [3H]-Ro- 15-1788 binding from human recombinant Gamma-aminobutyric acid A receptor alpha-5-beta-3-gamma-2 expressed in mouse fibroblast L(tk-) cells (30 min at 24 degrees C, pH 7.4)
# Assay type: cell-based
pKi: −log10 of the molar value.

{"STRUCTURE_SMILES": "CC(C)Nc1cc(-c2cccc(Br)c2)cnn1", "LIMIT_SIGN": "=", "pKi": 8.14}
{"STRUCTURE_SMILES": "N#Cc1cccc(-c2cnnc(-c3ccc(F)cc3)c2)c1", "LIMIT_SIGN": "=", "pKi": 7.85}
{"STRUCTURE_SMILES": "Brc1cccc(-c2cnnc(-c3ccccc3)c2)c1", "LIMIT_SIGN": "=", "pKi": 8.10}
{"STRUCTURE_SMILES": "COC(=O)c1c(-c2ccccc2)cnnc1-c1ccccc1", "LIMIT_SIGN": "=", "pKi": 7.92}
{"STRUCTURE_SMILES": "CC(C)Oc1cc(-c2cccc(Br)c2)cnn1", "LIMIT_SIGN": "=", "pKi": 7.44}
{"STRUCTURE_SMILES": "CCNc1cc(-c2cccc(Br)c2)cnn1", "LIMIT_SIGN": "=", "pKi": 8.42}
{"STRUCTURE_SMILES": "Cn1ncnc1COc1cccc(-c2cnnc(-c3ccccc3)c2)c1", "LIMIT_SIGN": "=", "pKi": 8.06}
{"STRUCTURE_SMILES": "CN(C)c1cc(-c2cccc(Br)c2)cnn1", "LIMIT_SIGN": "=", "pKi": 7.29}
{"STRUCTURE_SMILES": "COc1cc(-c2cccc(Br)c2)cnn1", "LIMIT_SIGN": "=", "pKi": 7.27}
{"STRUCTURE_SMILES": "COC(=O)c1sccc1-c1cnnc(-c2ccccc2)c1", "LIMIT_SIGN": "=", "pKi": 7.92}
{"STRUCTURE_SMILES": "N#Cc1cccc(-c2cnnc(OCc3ccccc3)c2)c1", "LIMIT_SIGN": "=", "pKi": 7.77}
{"STRUCTURE_SMILES": "CNc1cc(-c2cccc(Br)c2)cnn1", "LIMIT_SIGN": "=", "pKi": 7.57}
{"STRUCTURE_SMILES": "CCOc1cc(-c2cccc(Br)c2)cnn1", "LIMIT_SIGN": "=", "pKi": 8.24}
{"STRUCTURE_SMILES": "N#Cc1ccccc1-c1cnnc(-c2ccccc2)c1", "LIMIT_SIGN": "=", "pKi": 6.49}
{"STRUCTURE_SMILES": "Brc1cccc(-c2cnnc(NCc3ccccc3)c2)c1", "LIMIT_SIGN": "=", "pKi": 7.72}
{"STRUCTURE_SMILES": "N#Cc1cccc(-c2cnnc(-c3ccc(F)cc3F)c2)c1", "LIMIT_SIGN": "=", "pKi": 7.77}
{"STRUCTURE_SMILES": "COC(=O)c1cccc(-c2cnnc(-c3ccccc3)c2)c1", "LIMIT_SIGN": "=", "pKi": 7.96}
{"STRUCTURE_SMILES": "N#Cc1cccc(-c2cnnc(-c3ccccc3)c2)c1", "LIMIT_SIGN": "=", "pKi": 8.28}
{"STRUCTURE_SMILES": "N#Cc1cccc(-c2cnnc(-c3ccc(F)c(F)c3)c2)c1", "LIMIT_SIGN": "=", "pKi": 7.89}
{"STRUCTURE_SMILES": "CCNc1cc(-c2cccc(C#N)c2)cnn1", "LIMIT_SIGN": "=", "pKi": 7.48}
{"STRUCTURE_SMILES": "CC(C)Oc1cccc(-c2cnnc(-c3ccccc3)c2)c1", "LIMIT_SIGN": "=", "pKi": 8.08}
{"STRUCTURE_SMILES": "c1ccc(-c2cc(-c3cccc(-n4cnnc4)c3)cnn2)cc1", "LIMIT_SIGN": "=", "pKi": 7.92}
{"STRUCTURE_SMILES": "N#Cc1cccc(-c2cnnc(NCc3ccccc3)c2)c1", "LIMIT_SIGN": "=", "pKi": 8.21}
{"STRUCTURE_SMILES": "N#Cc1cccc(-c2cnnc(-c3ccccc3F)c2)c1", "LIMIT_SIGN": "=", "pKi": 8.47}
{"STRUCTURE_SMILES": "Brc1cccc(-c2cnnc(OCc3ccccc3)c2)c1", "LIMIT_SIGN": "=", "pKi": 7.20}
{"STRUCTURE_SMILES": "N#Cc1cccc(-c2cnnc(-c3cccc(F)c3)c2)c1", "LIMIT_SIGN": "=", "pKi": 8.40}
{"STRUCTURE_SMILES": "N#Cc1ccc(-c2cnnc(-c3ccccc3)c2)cc1", "LIMIT_SIGN": "=", "pKi": 7.25}
{"STRUCTURE_SMILES": "c1ccc(-c2cnnc(-c3ccccc3)c2)cc1", "LIMIT_SIGN": "=", "pKi": 7.54}
{"STRUCTURE_SMILES": "CCOc1cc(-c2cccc(C#N)c2)cnn1", "LIMIT_SIGN": "=", "pKi": 7.44}
{"STRUCTURE_SMILES": "c1ccc(-c2cc(-c3ccnc(-c4ccncc4)n3)cnn2)cc1", "LIMIT_SIGN": "=", "pKi": 8.80}
{"STRUCTURE_SMILES": "N#Cc1cccc(-c2cc(-c3ccccc3)cnn2)c1", "LIMIT_SIGN": "<", "pKi": 6.18}

src = ChEMBL document CHEMBL1141088
